- Tested system: PPARγ (Homo sapiens, UniProt P37231)
- Construct: purchased Invitrogen Corporation, Carlsbad, Calif
- Sequence (P37231 238-503 limits assumed): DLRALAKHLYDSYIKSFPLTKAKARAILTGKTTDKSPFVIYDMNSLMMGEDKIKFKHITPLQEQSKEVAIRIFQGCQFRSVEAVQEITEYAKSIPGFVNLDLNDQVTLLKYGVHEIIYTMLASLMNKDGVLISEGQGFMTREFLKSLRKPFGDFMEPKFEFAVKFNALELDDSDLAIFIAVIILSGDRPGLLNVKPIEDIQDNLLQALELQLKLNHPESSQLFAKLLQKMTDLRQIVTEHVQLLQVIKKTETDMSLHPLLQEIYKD
- Procedure summary: Commercial PPARγ binding assay (Invitrogen, PPAR-LBD/Fluormone PPAR Green complex)
- Measurement conditions: compound at 10 μM; average (SEM) of three experiments in quadruplicate
Could you please report measured PPARγ ligand binding (Fluormone displacement signal) for the items listed next?

## Input Give the measured PPARγ ligand binding (Fluormone displacement signal) of CCc1ccc(C(COc2ccc(CC3SC(=O)NC3=O)cc2)CC(=O)OC)nc1 (stereo not shown) .
## Output 112 (12)

## Input Param item = CCc1ccc([C@H](O)COc2ccc(CC3(C)SC(=O)NC3=O)cc2)nc1 (stereo partly shown) ; retrieve measured PPARγ ligand binding (Fluormone displacement signal).
## Output 234 (12)

## Input If you can, please state the reported PPARγ ligand binding (Fluormone displacement signal) value of CCc1ccc(C(=CC(=O)OC)COc2ccc(CC3SC(=O)NC3=O)cc2)nc1 (stereo not shown) .
## Output 165 (10)

## Input What value of PPARγ ligand binding (Fluormone displacement signal) has been reported for the following compound? CCc1ccc([C@@H](O)COc2ccc(CC3SC(=O)NC3=O)cc2)nc1 (stereo partly shown)
## Output 223 (11)

## Input Dear colleague, I am looking for the recorded PPARγ ligand binding (Fluormone displacement signal) of the following compound: CCc1ccc(CCOc2ccc(CC3(C)SC(=O)NC3=O)cc2)nc1 (stereo not shown) [Compound 6]
## Output 198 (10)

## Input Fill in: PPARγ ligand binding (Fluormone displacement signal) of CCc1ccc(C(=CCO)COc2ccc(CC3SC(=O)NC3=O)cc2)nc1 (stereo not shown) is ___
## Output 204 (12)

## Input Entry under review: CCc1ccc(CCOc2ccc(CC3(C)SC(=O)NC3=O)cc2)nc1 (stereo not shown) [Compound 4] . Reported PPARγ ligand binding (Fluormone displacement signal)?
## Output 200 (8)

## Input So what's the measured PPARγ ligand binding (Fluormone displacement signal) for this one? CCc1ccc(C(O)COc2ccc(CC3(C)SC(=O)NC3=O)cc2)nc1 (stereo not shown)
## Output 212 (11)

## Input Name the recorded PPARγ ligand binding (Fluormone displacement signal) for CCc1ccc([C@@H](O)COc2ccc(CC3(C)SC(=O)NC3=O)cc2)nc1 (stereo partly shown) .
## Output 233 (7)

## Input Entry CCc1ccc(CCOc2ccc(CC3(C)SC(=O)NC3=O)cc2)nc1 (stereo not shown) [Compound 7] has what PPARγ ligand binding (Fluormone displacement signal)?
## Output 210 (9)

###

- Tested system: PPARγ (Homo sapiens, UniProt P37231)
- Construct: purchased Invitrogen Corporation, Carlsbad, Calif
- Procedure summary: Commercial PPARγ binding assay (Invitrogen, PPAR-LBD/Fluormone PPAR Green complex)
- Measurement conditions: compound at 1 μM; average (SEM) of three experiments in quadruplicate
What Activation of PPARγ was measured for each of the following?

## Input Recorded Activation of PPARγ for CCc1ccc(C(COc2ccc(CC3SC(=O)NC3=O)cc2)CC(=O)OC)nc1 (stereo not drawn) [Compound 12] , please?
## Output 198 (6)

## Input Query (molecule): CCc1ccc(CCOc2ccc(CC3(C)SC(=O)NC3=O)cc2)nc1 (stereo not drawn) [Compound 7] ; field requested: Activation of PPARγ
## Output 248 (13)

## Input Could you share which Activation of PPARγ value was measured for CCc1ccc([C@H](O)COc2ccc(CC3(C)SC(=O)NC3=O)cc2)nc1 (stereo partly drawn) [Compound 9] ?
## Output 239 (13)

## Input Param item = CCc1ccc(C(=CCO)COc2ccc(CC3SC(=O)NC3=O)cc2)nc1 (stereo not drawn) [Compound 13] ; retrieve measured Activation of PPARγ.
## Output 229 (20)

## Input What value of measured Activation of PPARγ is listed for CCc1ccc([C@@H](O)COc2ccc(CC3(C)SC(=O)NC3=O)cc2)nc1 (stereo partly drawn) [Compound 8] ?
## Output 239 (5)

## Input What does the data say about its Activation of PPARγ? Entry: CCc1ccc(C(=O)COc2ccc(CC3(C)SC(=O)NC3=O)cc2)nc1 (stereo not drawn) [Compound 10]
## Output 240 (2)

# credit: patent US20090143441A1
